Experiment: Metabolic stability test: liver microsomal stability assay
Type: in vitro ADME, mouse
Conditions: mouse liver microsomes 0.5 mg protein/mL, compound 1 µM, absence of NADPH
Starred links: 1 amine or outer side, 2 acyl side, 3 side chain; linkers in the order of their positions; H or OH if unused. Positions of bridges follow the written chain, without caps; N, C: chain ends. Non-standard residues stand in square brackets, D forms with d. Residues, ends and D or L forms follow the SMILES beside them. *: point of attachment. NMeF = CN[C@@H](Cc1ccccc1)C(=O)O; NMeGABA = CN(CCCC(=O)[*:2])[*:1]; NMeL = CN[C@@H](CC(C)C)C(=O)O; NMeA = CN[C@@H](C)C(=O)O; Piperidide = C1CCN(*)CC1; Abu = CC[C@H](N)C(=O)O; tBu = CC(C)(C)*
property measured: Mouse Hepatic Microsome CLh,int NADPH(-)

Mouse Hepatic Microsome CLh,int NADPH(-) in this record for CC[C@@H]1NC(=O)[C@H](Cc2ccccc2)N(C)C(=O)[C@H](C)N(C)C(=O)[C@H](CC(C)C)N(C)C(=O)[C@H](CC(C)C)NC(=O)CCCN(C)C(=O)C[C@@H](C(=O)N2CCCCC2)NC(=O)[C@H](CC(C)C)N(C)C(=O)[C@H](C)N(C)C(=O)[C@H]([C@@H](C)O)NC(=O)[C@H](CC(C)C)N(C)C(=O)[C@H](COC(C)(C)C)NC(=O)[C@H](Cc2ccccc2)N(C)C1=O [pd109] ([NMeGABA]L[NMeL][NMeA][NMeF][Abu][NMeF]S(tBu)[NMeL]T[NMeA][NMeL]D-Piperidide; lactam N-13) : 30.3 µL/min/mg Protein

---

System: Caco-2 cells
Experiment: Membrane permeability test using Caco-2 cells with preincubation
Format: in vitro ADME
Conditions: Caco-2 cells, preincubation 20 to 24 hours; apical FaSSIF/HBSS 1% DMSO pH 6.0, basal HBSS 4% BSA pH 7.4; basal sample at 180 minutes
Starred links: 1 amine or outer side, 2 acyl side, 3 side chain; linkers in the order of their positions; H or OH if unused. Positions of bridges follow the written chain, without caps; N, C: chain ends. Non-standard residues stand in square brackets, D forms with d. Residues, ends and D or L forms follow the SMILES beside them. *: point of attachment. NMeF = CN[C@@H](Cc1ccccc1)C(=O)O; hPhe = N[C@@H](CCc1ccccc1)C(=O)O; NMeβAla = CN(CCC(=O)[*:2])[*:1]; NMeL = CN[C@@H](CC(C)C)C(=O)O; NMeV = CN[C@H](C(=O)O)C(C)C; d(β3hA) = C[C@@H](N)CC(=O)O; NMeA = CN[C@@H](C)C(=O)O; Piperidide = C1CCN(*)CC1; Sar = CNCC(=O)O
property measured: Caco2 Papp (10^-6 cm/sec)

Caco2 Papp (10^-6 cm/sec) in this record for CC[C@H](C)[C@@H]1NC(=O)[C@H](CC(C)C)N(C)C(=O)CN(C)C(=O)C[C@@H](C(=O)N2CCCCC2)NC(=O)[C@H](C)N(C)C(=O)CNC(=O)[C@H](C(C)C)N(C)C(=O)[C@H](C)N(C)C(=O)[C@H](Cc2ccccc2)N(C)C(=O)[C@H](CC(C)C)NC(=O)[C@H](Cc2ccccc2)N(C)C(=O)[C@H]([C@@H](C)O)NC(=O)[C@H](CC(C)C)N(C)C1=O [pd115] ([Sar][NMeL]I[NMeL]T[NMeF]L[NMeF][NMeA][NMeV]G[NMeA]D-Piperidide; lactam N-13) : 0.09 10^-6 cm/sec

Caco2 Papp (10^-6 cm/sec) in this record for CC[C@H](C)[C@@H]1NC(=O)[C@H](CCc2ccccc2)NC(=O)[C@H](CC(C)C)N(C)C(=O)[C@H](C)N(C)C(=O)[C@H](Cc2ccccc2)N(C)C(=O)[C@@H]2CCCN2C(=O)[C@H]([C@@H](C)CC)NC(=O)[C@H](CC(C)C)N(C)C(=O)CCN(C)C(=O)C[C@@H](C)NC(=O)[C@H](CC(C)C)N(C)C(=O)[C@H]([C@@H](C)O)NC(=O)[C@H](C)N(C)C1=O [pd133] (cyclo(I[NMeA]T[NMeL][d(β3hA)][NMeβAla][NMeL]IP[NMeF][NMeA][NMeL][hPhe])) : 0.53 10^-6 cm/sec
